Each recorded value in this set is attributed to the Immune Epitope Database (IEDB).

assay.system: HLA-B*46:01
procedure.text: IEDB peptide-MHC binding, purified MHC/competitive/fluorescence; filed as Kd, often an IC50 or EC50 that approximates it; bounds were set here for any values at or beyond the usual limits of such assays
test.settings: source organism: Hantavirus HPR/02-73
property.label: Kd

Input line: Specify measured Kd for `WKAIGAYIL` .
Output line: ≥ 20 µM

* * *

assay.system: HLA-B*46:01
procedure.text: IEDB peptide-MHC binding, purified MHC/direct/fluorescence; filed as Kd, often an IC50 or EC50 that approximates it; bounds were set here for any values at or beyond the usual limits of such assays
test.settings: source organism: Mammarenavirus lassaense
property.label: Kd

Input line: Determine reported Kd for `KREEHYIVL` ; test system: HLA-B*46:01.
Output line: ≥ 20 µM

* * *

assay.system: HLA-A*02:50
procedure.text: IEDB peptide-MHC binding, purified MHC/direct/fluorescence; filed as Kd, often an IC50 or EC50 that approximates it; bounds were set here for any values at or beyond the usual limits of such assays
test.settings: source organism: Salmonella enterica subsp. enterica serovar Typhimurium str. LT2
property.label: Kd

Input line: Specify measured Kd for `FPASHMATY` .
Output line: ≥ 20 µM

* * *

assay.system: HLA-B*57:01
procedure.text: IEDB peptide-MHC binding, purified MHC/competitive/radioactivity; filed as Kd, often an IC50 or EC50 that approximates it; bounds were set here for any values at or beyond the usual limits of such assays
test.settings: source organism: Dengue virus 4 Philippines/H241/1956
pKd: −log10 of the molar value.
property.label: pKd

Input line: Specify measured pKd for `EASISNITTA` .
Output line: ≤ 4.63

* * *

assay.system: HLA-A*32:01
procedure.text: IEDB peptide-MHC binding, purified MHC/competitive/radioactivity; filed as Kd, often an IC50 or EC50 that approximates it; bounds were set here for any values at or beyond the usual limits of such assays
test.settings: source organism: Mammarenavirus whitewaterense
pKd: −log10 of the molar value.
property.label: pKd

Input line: Specify measured pKd for `DLGLLYTAKY` .
Output line: ≤ 4.16

* * *

# pKd annotations
assay.system: HLA-A*02:03
procedure.text: IEDB peptide-MHC binding, purified MHC/direct/fluorescence; filed as Kd, often an IC50 or EC50 that approximates it; bounds were set here for any values at or beyond the usual limits of such assays
test.settings: source organism: Zaire ebolavirus
pKd: −log10 of the molar value.

Input line: Specify measured pKd for `SQVRVPTVF` .
Output line: ≤ 4.70

Input line: Specify measured pKd for `KVYWAGIEF` .
Output line: ≤ 4.70

Input line: Specify measured pKd for `IFLKPDETF` .
Output line: ≤ 4.70

* * *

assay.system: HLA-B*58:01
procedure.text: IEDB peptide-MHC binding, purified MHC/direct/fluorescence; filed as Kd, often an IC50 or EC50 that approximates it; bounds were set here for any values at or beyond the usual limits of such assays
test.settings: source organism: Escherichia coli O157:H7
pKd: −log10 of the molar value.
property.label: pKd

Input line: Determine reported pKd for `YLGTPNNTY` ; test system: HLA-B*58:01.
Output line: ≤ 4.70

* * *

# pKd annotations
assay.system: HLA-A*02:01
procedure.text: IEDB peptide-MHC binding, purified MHC/direct/fluorescence; filed as Kd, often an IC50 or EC50 that approximates it; bounds were set here for any values at or beyond the usual limits of such assays
test.settings: source organism: Vibrio cholerae
pKd: −log10 of the molar value.

RVHGATVFK ... ≤ 4.70

Then there is this sequence:
Input line: Specify measured pKd for `DSDPMDGCE` .
Output line: ≤ 4.70
